Reference for the values: patent US9453014B2

# Subject Of Test: human full length HSD11 β 1 (Homo sapiens)
# Construct: transient expression of human full length HSD11 β 1 expression vector; host or cells: CHO cells (transient transfection)
# Procedure Details: In Vitro HSD11β1 Inhibition Assay
# Assay type: cell-based
# Stated Conditions: CHO cells transiently expressing human HSD11β1; 200 nM cortisone+500 uM NADPH overnight; cortisone to cortisol by LC/MS-MS; read-out: 11βHSD1 (IC50)
Metric: IC50

Below, each entry is followed by its recorded IC50 result.
{"Molecule": "CC(C)C(CC(=O)N1CCC(C(=O)O)C2CCCCC21)c1c[nH]c2cccc(F)c12 (stereo not shown)", "Metric": "IC50", "Observed": "> 0.25 µM"}
{"Molecule": "CC(C)(C)NC(=O)C1CC2CCCCC2CN1C(=O)CCc1c[nH]c2ccccc12 (stereo not shown)", "Metric": "IC50", "Observed": "> 0.25 µM"}
{"Molecule": "CC(CC(=O)N1CCCC2CC(C(=O)O)CCC21)c1c[nH]c2cccc(Cl)c12 (stereo not shown)", "Metric": "IC50", "Observed": "> 0.25 µM"}

Pending molecule:
*Q* Recorded IC50 of CC(Oc1c[nH]c2ccccc12)C(=O)N1CCCC2CCCCC21 (stereo not shown) , please.
*A* > 0.25 µM

---

# IC50 per entry
# Subject Of Test: human full length HSD11 β 1 (Homo sapiens, UniProt P28845)
# Construct: transient expression of human full length HSD11 β 1 expression vector; host or cells: CHO cells (transient transfection)
# Sequence (P28845 whole entry): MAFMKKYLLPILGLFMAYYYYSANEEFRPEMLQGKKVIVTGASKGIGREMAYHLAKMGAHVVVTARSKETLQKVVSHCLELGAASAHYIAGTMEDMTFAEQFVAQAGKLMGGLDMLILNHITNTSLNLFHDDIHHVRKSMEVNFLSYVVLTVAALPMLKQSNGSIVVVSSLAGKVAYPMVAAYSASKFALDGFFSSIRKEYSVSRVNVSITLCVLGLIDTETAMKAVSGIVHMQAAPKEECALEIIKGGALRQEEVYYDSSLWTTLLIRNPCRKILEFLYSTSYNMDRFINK
# Procedure Details: In Vitro HSD11β1 Inhibition Assay
# Assay type: cell-based
# Stated Conditions: CHO cells transiently expressing human HSD11β1; 200 nM cortisone+500 uM NADPH overnight; cortisone to cortisol by LC/MS-MS; read-out: 11βHSD1 (IC50)

Example entries begin here.
{"Molecule": "Cc1cccc2[nH]cc(C(C)CC(=O)N3CCCC4(C#N)CCCCC34)c12 (centres unmarked)", "IC50": "> 250 nM"}
{"Molecule": "CC(Oc1cn(C)c2ccccc12)C(=O)N1CCCC2CCCCC21 (centres unmarked)", "IC50": "> 250 nM"}
{"Molecule": "CC(CC(=O)N1CCO[C@H]2CCCCC21)c1c[nH]c2cccc(F)c12 (single isomer, unassigned) [Example 140]", "IC50": "< 100 nM"}

*Q* What does the record list as IC50 for O=C(CCc1n[nH]c2ccccc12)N1CCCC2CCCCC21 (centres unmarked) ?
*A* > 250 nM

*Q* I have this molecule here, O=C(O)C1CCC2C(CCCN2C(=O)CC(c2ccccc2)c2c[nH]c3cccc(F)c23)C1 (centres unmarked) , and I need its recorded IC50.
*A* < 100 nM

*Q* Given the entry CC(CC(=O)N1CCCC2(C)CCCCC12)c1c[nH]c2cccc(F)c12 (centres unmarked) , report its measured IC50.
*A* < 100 nM

*Q* Quick check: IC50 of Cn1cc(C2CC2C(=O)N2CCCC3CCCCC32)c2ccccc21 (centres unmarked) ?
*A* 150 to 200 nM

*Q* Any idea what its IC50 is? The molecule is O=C(O)C1CCN(C(=O)CC(c2ccc(F)cc2)c2c[nH]c3cccc(F)c23)C2CCCCC12 (single isomer, unassigned) [Compound 226]
*A* > 250 nM

---

# Subject Of Test: human full length HSD11 β 1 (Homo sapiens, UniProt P28845)
# Construct: transient expression of human full length HSD11 β 1 expression vector; host or cells: CHO cells (transient transfection)
# Procedure Details: In Vitro HSD11β1 Inhibition Assay
# Type: cell-based
# Stated Conditions: CHO cells transiently expressing human HSD11β1; 200 nM cortisone+500 uM NADPH overnight; cortisone to cortisol by LC/MS-MS; read-out: 11βHSD1 (IC50)
Metric: IC50

Answered cases to consult:
{"Molecule": "CC(CC(=O)N1CCCC2(CO)CCCCC12)c1c[nH]c2cccc(Cl)c12 (centres unmarked) [Example 130]", "Metric": "IC50", "Observed": "> 250 nM"}
{"Molecule": "O=C(CCc1cc2ccccc2[nH]1)N1CCCC2CCCCC21 (centres unmarked) [Compound 14]", "Metric": "IC50", "Observed": "> 250 nM"}

*Q* Which IC50 is listed for Cn1cc(CCC(=O)N2CCCC3CCCCC32)c2c(F)cccc21 (centres unmarked) [Compound 47] ?
*A* < 100 nM

*Q* Bench note: what IC50 did CC(CC(=O)N1CCCC2CCCCC21)c1c[nH]c2ncccc12 (centres unmarked) [Example 143] show?
*A* < 100 nM

*Q* I would be grateful if you could share the reported IC50 for O=C(CCc1c[nH]c2ccccc12)N1CCC2CCCCC21 (centres unmarked) [Compound 41] .
*A* 100 to 150 nM

---

Listed here: items and their measured IC50.
# Subject Of Test: human full length HSD11 β 1 (Homo sapiens, UniProt P28845)
# Construct: transient expression of human full length HSD11 β 1 expression vector; host or cells: CHO cells (transient transfection)
# Procedure Details: In Vitro HSD11β1 Inhibition Assay
# Type: cell-based
# Stated Conditions: CHO cells transiently expressing human HSD11β1; 200 nM cortisone+500 uM NADPH overnight; cortisone to cortisol by LC/MS-MS; read-out: 11βHSD1 (IC50)
# Method: In Vitro HSD11β1 Inhibition Assay: CHO cells were maintained in Dulbecco's modified Eagle's medium/nutrient mixture F-12 containing 5% fetal bovine serum (v/v) and 2 mM glutamine. Cells were cultured at 37° C. with 5% CO2. […] The enzymatic activity or inhibition of enzyme activity was measured by estimating the conversion of cortisone to cortisol by LC/MS-MS method. The IC50 in nM was calculated from an 8 point log scale of concentration versus inhibition.

Please review the entries below; each comes with its answer.
{"Compound": "CC(CC(=O)N1CCCC2C(C(=O)O)CCCC21)c1c[nH]c2cccc(-c3cccs3)c12 (stereo not drawn) [Compound 192]", "Metric": "IC50", "Observed": "< 0.1 µM"}
{"Compound": "CC(CC(=O)N1CCCC2CC(C(=O)O)CCC21)c1c[nH]c2cccc(C3CC3)c12 (stereo not drawn) [Compound 217]", "Metric": "IC50", "Observed": "0.1 to 0.15 µM"}
{"Compound": "CC(CC(=O)N1CCOC2CCCCC21)c1c[nH]c2cccc(F)c12 (stereo not drawn) [Example 136]", "Metric": "IC50", "Observed": "> 0.25 µM"}

*Q* For the compound shown here, CC(CC(=O)N1CCCC2C(C(=O)O)CCCC21)c1c[nH]c2cccc(-c3ccc(F)cc3)c12 (stereo not drawn) [Compound 254] , give the reported IC50.
*A* > 0.25 µM

*Q* Entry O=C(O)C1CCN(C(=O)CC(c2ccccc2)n2nnc3ccccc32)C2CCCCC12 (single isomer, unassigned) [Example 181] has what IC50?
*A* > 0.25 µM

*Q* Give its IC50 value. Item: CC(CC(=O)N1CCCC2C(C(=O)O)CCCC21)c1c[nH]c2cccc(-c3ccco3)c12 (single isomer, unassigned) [Compound 223]
*A* 0.1 to 0.15 µM

*Q* Bench note: what IC50 did CC(CC(=O)N1CCCC2C(C(=O)O)CCCC21)c1c[nH]c2cccc(-c3cccn3C)c12 (stereo not drawn) [Compound 244] show?
*A* > 0.25 µM

*Q* What value of measured IC50 is listed for CC(C)Oc1cccc2c1c(C(C)CC(=O)N1CCCC3C(C(=O)O)CCCC31)cn2C (stereo not drawn) [Compound 208] ?
*A* 0.1 to 0.15 µM

*Q* Which measured IC50 value corresponds to Cc1cccc2[nH]cc(CCC(=O)N3CC(C)(C)OC4CCCCC43)c12 (stereo not drawn) [Compound 68] ?
*A* > 0.25 µM

---

# Subject Of Test: human full length HSD11 β 1 (Homo sapiens, UniProt P28845)
# Construct: transient expression of human full length HSD11 β 1 expression vector; host or cells: CHO cells (transient transfection)
# Procedure Details: In Vitro HSD11β1 Inhibition Assay
# Type: cell-based
# Stated Conditions: CHO cells transiently expressing human HSD11β1; 200 nM cortisone+500 uM NADPH overnight; cortisone to cortisol by LC/MS-MS; read-out: 11βHSD1 (IC50)
pIC50: −log10 of the molar value.
Listed below: pIC50 values for each entry.

{"Compound": "COC12CCCCC1N(C(=O)CC(C)c1c[nH]c3ncccc13)CCC2 (stereo not drawn) [Example 153]", "Observed": "6.70 to 6.82"}
{"Compound": "O=C(CCc1c[nH]c2ccc(F)cc12)N1CCCC2CCCCC21 (stereo not drawn) [Compound 4]", "Observed": "6.82 to 7.00"}
{"Compound": "O=C(CC(=O)N1CCCC2CCCCC21)c1c[nH]c2ccc(Cl)cc12 (stereo not drawn) [Compound 19]", "Observed": "< 6.60"}

*Q* What value of measured pIC50 is listed for Cn1cc(CCC(=O)N2CCO[C@@H]3CCCC[C@H]32)c2ccccc21 (relative stereo) [Compound 63] ?
*A* < 6.60

*Q* Form field: reported pIC50 of O=C(CCc1c[nH]c2ccc(Cl)cc12)N1CCCC2CCCCC21 (stereo not drawn) [Compound 6]
*A* 6.60 to 6.70

*Q* Record request: pIC50 value, item O=C(CCc1c[nH]c2ccccc12)N1CCO[C@@H]2CCCCC21 (stereo partly drawn) [Compound 61]
*A* < 6.60

*Q* Quick check: pIC50 of CC1CCC2CCCCC2N1C(=O)CCc1c[nH]c2ccccc12 (stereo not drawn) [Compound 38] ?
*A* 6.70 to 6.82

*Q* Query (compound): CC(C)C(CC(=O)N1CCOC2CCCCC21)c1cn(C)c2ccccc12 (stereo not drawn) [Example 134] ; field requested: pIC50
*A* < 6.60

*Q* # input compound: Cc1ccnc2[nH]cc(C(CC(=O)N3CCC(C(=O)O)C4CCCCC43)C(C)C)c12 (stereo not drawn) [Example 180] ; wanted: its pIC50
*A* < 6.60
